Target: T1, human plasma Kallikrein (human, UniProt P03952 20-638, limits assumed)
T1 construct: also called hPK; human PK
T1 sequence (P03952 20-638 limits assumed): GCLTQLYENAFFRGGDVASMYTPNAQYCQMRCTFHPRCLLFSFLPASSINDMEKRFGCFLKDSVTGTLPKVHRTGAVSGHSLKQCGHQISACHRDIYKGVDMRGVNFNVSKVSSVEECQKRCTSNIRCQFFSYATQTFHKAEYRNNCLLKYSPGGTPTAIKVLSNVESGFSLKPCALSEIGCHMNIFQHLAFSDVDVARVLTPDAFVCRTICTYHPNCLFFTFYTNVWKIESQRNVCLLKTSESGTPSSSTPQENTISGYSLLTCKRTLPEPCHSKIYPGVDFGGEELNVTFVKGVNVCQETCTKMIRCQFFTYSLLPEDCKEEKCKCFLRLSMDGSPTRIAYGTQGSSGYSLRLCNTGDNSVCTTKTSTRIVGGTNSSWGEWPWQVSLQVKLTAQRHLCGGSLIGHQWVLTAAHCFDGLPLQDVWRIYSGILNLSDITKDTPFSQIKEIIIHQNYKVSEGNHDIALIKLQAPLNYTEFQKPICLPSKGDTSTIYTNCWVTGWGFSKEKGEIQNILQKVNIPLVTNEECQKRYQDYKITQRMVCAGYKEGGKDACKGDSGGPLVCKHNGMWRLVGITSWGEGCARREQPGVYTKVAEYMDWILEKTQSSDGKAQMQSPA
Assay: enzyme inhibition assay
Numbered stars: 1 amine (or outer) side, 2 acyl side, 3 side chain; on linkers, the order of the positions; unused ones are H or OH. Bridge positions count the residues as written; N and C are the ends. TBMB = c1c(C[*:1])cc(C[*:3])cc1C[*:2]
Recorded Metric: Ki

Req: What does the data say about its Ki? Entry: Ac-CSWPACLHQDLC-NH2 (linker 1-6-12 via TBMB; SMILES CC(=O)N[C@H]1CSCc2cc3cc(c2)CSC[C@H](NC(=O)[C@H](C)NC(=O)[C@@H]2CCCN2C(=O)[C@H](Cc2c[nH]c4ccccc24)NC(=O)[C@H](CO)NC1=O)C(=O)N[C@@H](CC(C)C)C(=O)N[C@@H](Cc1c[nH]cn1)C(=O)N[C@@H](CCC(N)=O)C(=O)N[C@@H](CC(=O)O)C(=O)N[C@@H](CC(C)C)C(=O)N[C@H](C(N)=O)CSC3, Residue ranges derived from the stated deletion of Arg5) [Ac-(06-34-18) Δ Arg5]
Resp: > 100 µM
